Overview of reported IC50 across a group of molecules:
Target: PDE4B (Homo sapiens)
Assay: In-vitro assay for PDE4 enzymes, real-time enzyme-coupled spectrophotometric assay, PDE4B Activity (Table 10)
Format: biochemical
Settings: human PDE4B (hPDE4B), enzyme-coupled spectrophotometric assay; read-out: PDE4B Activity, hPDE4B

// worked examples, IC50 included
# mol smiles, IC50
rows = [
    ("COc1ccc(Cc2cccc(N)c2)c(F)c1-c1cccc(Cl)c1", "< 5 µM"),
    ("COc1ccc(CN2C(=O)C(=O)c3ccccc32)cc1-c1cccc([N+](=O)[O-])c1", "< 5 µM"),
    ("COc1ccc(Cn2ccnc2)cc1-c1ccc2nonc2c1", "< 5 µM"),
    ("COc1ccc(Cc2ccc(NC(C)=O)cc2)c(F)c1-c1cccc([N+](=O)[O-])c1", "< 5 µM"),
    ("COc1ccc(Cc2csc(N)n2)c(F)c1-c1cccc(Cl)c1", "< 5 µM"),
    ("CCOc1ccc(Cc2ccc(NC(N)=O)nc2)c(F)c1-c1cccc(Cl)c1", "< 5 µM"),
    ("COc1ccc(Nc2ccc(NC(N)=O)cc2)cc1-c1cccc(C(C)=O)c1", "5 to 20 µM"),
    ("COc1ccc(Cc2ccc(NS(C)(=O)=O)c(O)c2)c(F)c1-c1cccc(Cl)c1", "5 to 20 µM"),
]

I would be grateful if you could share the reported IC50 for COc1ccc(Sc2ccc(N)cc2)cc1-c1cccc(Cl)c1 .
< 5 µM

Please give the result for COc1cc(F)c(Cc2ccc(F)cc2)cc1-c1cccc([N+](=O)[O-])c1 too.
< 5 µM

====

Overview of reported pIC50 across a group of molecules:
Target: PDE4 (Homo sapiens)
Sequence (Q08499 whole entry): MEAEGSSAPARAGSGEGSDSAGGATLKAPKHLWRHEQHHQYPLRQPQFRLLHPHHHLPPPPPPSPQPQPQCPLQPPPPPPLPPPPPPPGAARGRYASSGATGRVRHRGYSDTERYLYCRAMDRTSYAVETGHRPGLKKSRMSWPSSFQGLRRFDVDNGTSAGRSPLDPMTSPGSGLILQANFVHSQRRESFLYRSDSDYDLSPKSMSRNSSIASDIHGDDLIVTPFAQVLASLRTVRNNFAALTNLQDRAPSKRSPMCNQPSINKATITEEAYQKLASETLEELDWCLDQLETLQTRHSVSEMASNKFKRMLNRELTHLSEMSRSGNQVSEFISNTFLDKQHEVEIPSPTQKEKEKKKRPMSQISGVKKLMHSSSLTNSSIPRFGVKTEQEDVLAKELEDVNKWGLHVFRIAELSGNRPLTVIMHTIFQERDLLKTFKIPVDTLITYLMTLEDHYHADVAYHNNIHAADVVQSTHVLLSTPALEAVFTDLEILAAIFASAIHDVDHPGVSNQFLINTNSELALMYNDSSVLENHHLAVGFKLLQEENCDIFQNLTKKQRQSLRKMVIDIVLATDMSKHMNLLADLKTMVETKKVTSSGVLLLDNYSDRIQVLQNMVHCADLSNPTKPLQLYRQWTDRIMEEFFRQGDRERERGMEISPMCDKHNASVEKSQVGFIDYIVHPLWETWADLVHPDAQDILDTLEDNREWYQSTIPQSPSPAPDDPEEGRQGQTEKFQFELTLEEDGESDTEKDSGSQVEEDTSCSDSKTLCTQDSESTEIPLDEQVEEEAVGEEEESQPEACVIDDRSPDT
Assay: In-vitro assay for PDE4 enzymes, real-time enzyme-coupled spectrophotometric assay (Table 9)
Type: biochemical
Details: human PDE4D; activity class, Table 9; read-out: hPDE4D
pIC50: −log10 of the molar value. Where a name gives a salt, the structure may show the parent alone.

// worked examples, pIC50 included
# molecule, target desc, result
rows = [
    ("CNc1ccc(Cc2ccc(OC)c(-c3cccc(Cl)c3)c2F)cc1 [P-311]", "PDE4 (Homo sapiens)", "> 5.30"),
    ("CNC(=O)NCc1ccc(Cc2ccc(OC(F)F)c(-c3cccc(Cl)c3)c2)cn1 [P-598, hydrochloride]", "PDE4 (Homo sapiens)", "> 5.30"),
    ("COc1ccc(Cn2cncn2)cc1-c1cccc([S+](C)[O-])c1 (stereo not shown) [P-169]", "PDE4 (Homo sapiens)", "4.70 to 5.30"),
    ("COc1ccc(Cn2ccnc2)cc1-c1ccc2nonc2c1 [P-006]", "PDE4 (Homo sapiens)", "> 5.30"),
    ("COc1ccc(Cc2ccc(CNC(N)=O)c(F)c2)c(F)c1-c1cccc(Cl)c1 [P-287]", "PDE4 (Homo sapiens)", "> 5.30"),
    ("COc1ccc(Cc2ccc(Cl)nc2)c(F)c1-c1cccc([N+](=O)[O-])c1 [P-152]", "PDE4 (Homo sapiens)", "> 5.30"),
]

Now for another entry.
I would be grateful if you could share the reported pIC50 for CN1CC[C@@H](Oc2ccc(Cc3ccc(NC(N)=O)cc3)cc2-c2cccc(Cl)c2)C1 [P-565] .
4.70 to 5.30

====

Biological target: UniProt:Q07343
Assay: In-vitro assay for PDE4 enzymes, real-time enzyme-coupled spectrophotometric assay, PDE4B Activity (Table 10)
Format: biochemical
Conditions: human PDE4B (hPDE4B), enzyme-coupled spectrophotometric assay; read-out: PDE4B Activity, hPDE4B
pIC50: −log10 of the molar value. Counter-ions that a name gives are not always drawn.
measurement label: pIC50

// worked examples, pIC50 included
# molecule, pIC50
measured = [
    ("[2H]C(O)(c1ccc([N+](=O)[O-])cc1)c1ccc(OC)c(-c2cccc(Cl)c2)c1 (stereo not drawn)", "4.70 to 5.30"),
    ("COc1ccc(Cc2ccc(NC(C)=O)cc2)c(O)c1-c1cccc([N+](=O)[O-])c1", "> 5.30"),
    ("COc1ccc(Cn2ccnc2-c2cccnc2)c(F)c1-c1cccc(Cl)c1 [P-549, hydrochloride salt]", "4.70 to 5.30"),
    ("NCc1ccc(Cc2ccc(OC(F)F)c(-c3cccc(Cl)c3)c2)cn1", "> 5.30"),
    ("COc1ccc(Cc2ccc(NC(C)=O)nc2)c(F)c1-c1cccc(Cl)c1", "> 5.30"),
    ("COc1ccc(Cc2cccc(NC(N)=O)c2)cc1-c1cccc(Cl)c1", "4.70 to 5.30"),
    ("COc1ccc(Cc2ccc(N3CCC3C(N)=O)nc2)c(F)c1-c1cccc(Cl)c1 (stereo not drawn)", "> 5.30"),
    ("COc1ccc(Oc2ccc(N)cc2)c(F)c1-c1cccc(C(C)=O)c1 [P-283, hydrochloride salt]", "> 5.30"),
    ("COc1ccc(CN2CCCCS2(=O)=O)cc1-c1cccc([N+](=O)[O-])c1", "> 5.30"),
    ("COc1ccc(CN2C(=O)CC[C@@H]2CN)cc1-c1cccc([N+](=O)[O-])c1", "> 5.30"),
]

What pIC50 appears in the records for this molecule with UniProt:Q07343? COc1ccc(Cn2nc3ccccn3c2=O)cc1-c1cccc([N+](=O)[O-])c1
> 5.30

Please give the result for COc1ccc(C(O)c2ccnn2C)cc1-c1ccc2c(c1)OCO2 (stereo not drawn) too.
4.40 to 4.68

====

Target: PDE4 (Homo sapiens)
Test: In-vitro assay for PDE4 enzymes, real-time enzyme-coupled spectrophotometric assay (Table 9)
Assay type: biochemical
Settings: human PDE4D; activity class, Table 9; read-out: hPDE4D
Overview of reported IC50 across a group of compounds:

# compound, target desc, IC50
measured = [
    ("CCNC(=O)Nc1ccc(Cc2ccc(OC)c(-c3cccc(Cl)c3)c2F)cn1 [P-356]", "PDE4 (Homo sapiens)", "< 5 µM"),
    ("COc1ccc(CN2CCOC2=O)cc1-c1cccc(C(F)(F)F)c1 [P-083]", "PDE4 (Homo sapiens)", "5 to 20 µM"),
    ("COc1ccc(CN2CCC[C@@H]2CO)cc1-c1cccc([N+](=O)[O-])c1 [P-493]", "PDE4 (Homo sapiens)", "20 to 40 µM"),
    ("COc1ccc(Cc2nnc(NC(N)=O)s2)c(F)c1-c1cccc(Cl)c1 [P-352]", "PDE4 (Homo sapiens)", "< 5 µM"),
]

Now for another entry.
I would be grateful if you could share the reported IC50 for COc1ccc(Cc2ccc(CN3CCNC3=O)nc2)c(F)c1-c1cccc(Cl)c1 [P-374] .
< 5 µM

====

Biological target: PDE4B (Homo sapiens, UniProt Q07343)
Sequence (Q07343 whole entry): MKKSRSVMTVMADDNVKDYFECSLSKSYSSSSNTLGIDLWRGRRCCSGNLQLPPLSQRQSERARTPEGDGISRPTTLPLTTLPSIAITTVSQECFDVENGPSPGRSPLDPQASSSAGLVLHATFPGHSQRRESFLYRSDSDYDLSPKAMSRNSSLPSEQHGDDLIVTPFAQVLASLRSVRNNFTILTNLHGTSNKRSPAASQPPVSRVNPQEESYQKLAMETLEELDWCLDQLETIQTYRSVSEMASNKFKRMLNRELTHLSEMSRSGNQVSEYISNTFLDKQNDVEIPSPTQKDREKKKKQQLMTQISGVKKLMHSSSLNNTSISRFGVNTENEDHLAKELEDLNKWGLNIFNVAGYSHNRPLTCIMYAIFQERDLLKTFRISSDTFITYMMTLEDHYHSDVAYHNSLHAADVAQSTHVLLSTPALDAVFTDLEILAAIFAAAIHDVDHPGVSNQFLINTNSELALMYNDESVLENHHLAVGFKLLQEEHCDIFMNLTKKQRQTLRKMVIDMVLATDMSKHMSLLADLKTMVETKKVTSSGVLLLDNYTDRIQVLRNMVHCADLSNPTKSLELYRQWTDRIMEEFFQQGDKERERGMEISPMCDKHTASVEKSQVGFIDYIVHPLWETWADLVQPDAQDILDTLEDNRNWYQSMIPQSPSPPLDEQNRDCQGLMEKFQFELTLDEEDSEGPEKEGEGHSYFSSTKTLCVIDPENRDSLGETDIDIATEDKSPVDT
Assay: In-vitro assay for PDE4 enzymes, real-time enzyme-coupled spectrophotometric assay, PDE4B Activity (Table 10)
Type: biochemical
Conditions: human PDE4B (hPDE4B), enzyme-coupled spectrophotometric assay; read-out: PDE4B Activity, hPDE4B
measurement label: IC50

# molecule, IC50
data = [
    ("COc1ccc(CN2CCN(C(N)=O)CC2)c(F)c1-c1cccc(Cl)c1", "5 to 20 µM"),
    ("COc1ccc(Cc2cccc(CN)c2)cc1-c1cccc([N+](=O)[O-])c1", "5 to 20 µM"),
]

Now for another entry.
I would be grateful if you could share the reported IC50 for COc1ccc(CC2CCCS2)c(F)c1-c1cccc([N+](=O)[O-])c1 (stereo not drawn) [P-127] .
< 5 µM

====

Biological target: PDE4B (Homo sapiens, UniProt Q07343)
Assay: In-vitro assay for PDE4 enzymes, real-time enzyme-coupled spectrophotometric assay, PDE4B Activity (Table 10)
Format: biochemical
Settings: human PDE4B (hPDE4B), enzyme-coupled spectrophotometric assay; read-out: PDE4B Activity, hPDE4B
pIC50: −log10 of the molar value. Where a name gives a salt, the structure may show the parent alone.
measurement label: pIC50

# compound, pIC50
data = [
    ("CCOc1ccc(Cc2ccc(OC)c(-c3cccc(Cl)c3)c2F)s1", "> 5.30"),
    ("COc1ccc(Cc2cccc(C(N)=O)c2)cc1-c1cccc(Cl)c1", "4.70 to 5.30"),
    ("COc1ccc(Cc2ccc(N)cc2)c(F)c1-c1cccc([N+](=O)[O-])c1", "> 5.30"),
    ("CC(C)(O)c1ccc(Cc2ccc(OC(F)F)c(-c3cccc(Cl)c3)c2)cn1 [P-610, hydrochloride]", "> 5.30"),
    ("COc1ccc(COc2ccc(Cl)nc2)c(F)c1-c1cccc(Cl)c1", "> 5.30"),
]

Now for another entry.
I would be grateful if you could share the reported pIC50 for CC(=O)Nc1ccc(Cc2ccc(O)c(-c3cccc(Br)c3)c2F)cc1 .
4.40 to 4.68

====

Overview of reported pIC50 across a group of molecules:
Molecular target: PDE4 (Homo sapiens)
Assay: In-vitro assay for PDE4 enzymes, real-time enzyme-coupled spectrophotometric assay (Table 9)
Format: biochemical
Conditions: human PDE4D; activity class, Table 9; read-out: hPDE4D
pIC50: −log10 of the molar value. Counter-ions that a name gives are not always drawn.

# molecule, measurement label, result
measured = [
    ("COc1ccc(COc2ccc(Cl)nc2)c(F)c1-c1cccc(Cl)c1", "pIC50", "> 5.30"),
    ("COc1ccc(Cc2c(C)noc2C)cc1-c1ccc2c(c1)OCO2", "pIC50", "> 5.30"),
    ("COc1ccc(Nc2ccc(NC(N)=O)cc2)cc1-c1cccc(C(C)=O)c1", "pIC50", "> 5.30"),
    ("COc1ccc(Cc2ccc(CN3CCOC3=O)nc2)c(F)c1-c1cccc(Cl)c1 [P-465, hydrochloride]", "pIC50", "> 5.30"),
]

I would be grateful if you could share the reported pIC50 for COc1ccc(Cc2ccc(NC(=O)CN(C)C)cc2)cc1-c1cccc([N+](=O)[O-])c1 .
> 5.30

Please give the result for COc1ccc(Cc2ccc(CNC(C)=O)c(O)c2)c(F)c1-c1cccc(Cl)c1 too.
> 5.30

Please give the result for COc1ccc(Cc2ccc(NS(C)(=O)=O)cc2)cc1-c1cccc(Cl)c1 too.
4.70 to 5.30

Please give the result for COc1ccc(Cc2ccc(OCCN(C)C)nc2)c(O)c1-c1cccc([N+](=O)[O-])c1 too.
4.70 to 5.30

Please give the result for COc1ccc(Cc2ccc(F)cc2)cc1-n1cc(Cl)cn1 too.
> 5.30

Please give the result for COC(=O)Nc1nnc(Cc2ccc(OC)c(-c3cccc(Cl)c3)c2F)s1 too.
> 5.30

Please give the result for CCNC(=O)Nc1ccc(Cc2ccc(OC)c(-c3cccc(Cl)c3)c2F)cc1 too.
> 5.30

Please give the result for COc1ccc(Cc2ccc3nc(C(N)=O)cn3c2)c(F)c1-c1cccc(Cl)c1 too.
> 5.30

Please give the result for COc1ccc(Cc2ccc(C(C)(C)N)nc2)c(F)c1-c1cccc(Cl)c1 too.
> 5.30

Source listed as patent US8791267B2.
